Numbers sourced from ChEMBL document CHEMBL3745672.

- study.target: RAC-alpha serine/threonine-protein kinase (Homo sapiens) (UniProt P31749)
- Sequence (P31749 whole entry): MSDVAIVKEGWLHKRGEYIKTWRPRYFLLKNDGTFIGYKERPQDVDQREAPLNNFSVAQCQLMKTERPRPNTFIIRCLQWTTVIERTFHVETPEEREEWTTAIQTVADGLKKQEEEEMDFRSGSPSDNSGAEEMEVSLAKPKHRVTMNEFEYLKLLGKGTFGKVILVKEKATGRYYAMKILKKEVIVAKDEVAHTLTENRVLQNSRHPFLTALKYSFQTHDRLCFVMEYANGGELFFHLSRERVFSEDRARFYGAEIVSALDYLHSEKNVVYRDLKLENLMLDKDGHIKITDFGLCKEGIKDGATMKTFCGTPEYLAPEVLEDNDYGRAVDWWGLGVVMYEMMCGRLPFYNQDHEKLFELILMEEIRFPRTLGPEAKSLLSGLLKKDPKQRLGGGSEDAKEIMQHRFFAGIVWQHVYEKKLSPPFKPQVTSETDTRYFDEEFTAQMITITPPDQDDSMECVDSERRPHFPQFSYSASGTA
- test.summary: Inhibition of AKT1 (unknown origin) at 10 uM
measure.name: inhibition (%)
Unit % implied. Number only.

Record excerpt, results attached:
CN1CCN(c2ccc(Nc3ncc4cc(Oc5c(Cl)cccc5Cl)c(=O)n(C)c4n3)cc2)CC1 ... 7
CN1CCN(CCCNc2ncc3cc(Oc4ccc(F)cc4F)c(=O)n(C)c3n2)CC1 ... 0
Cn1c(=O)c(Oc2c(Cl)cccc2Cl)cc2cnc(NC3CCOCC3)nc21 ... 3

Data request: Look up inhibition: Cn1c(=O)c(Oc2ccc(F)cc2F)cc2cnc(Nc3ccc(N4CCC(O)CC4)cc3)nc21
Data returned: 11

Data request: Look up inhibition: CN1CCN(c2ccc(Nc3ncc4cc(Oc5ccc(F)cc5F)c(=O)n(C)c4n3)cc2)CC1
Data returned: 0

Data request: Look up inhibition: Cn1c(=O)c(Oc2ccc(F)cc2F)cc2cnc(NC3CCN(S(C)(=O)=O)CC3)nc21
Data returned: 0

Data request: Look up inhibition: CN(C)CCNc1ncc2cc(Oc3ccc(F)cc3F)c(=O)n(C)c2n1
Data returned: 5

Data request: Look up inhibition: Cn1c(=O)c(Oc2ccc(F)cc2F)cc2cnc(NCCc3ccccn3)nc21
Data returned: 6

Data request: Look up inhibition: Cn1c(=O)c(Oc2ccc(F)cc2F)cc2cnc(Nc3ccc(N4CCCCC4)cc3)nc21
Data returned: 9

###

- study.target: Mitogen-activated protein kinase 8 (Homo sapiens, UniProt P45983)
- Sequence (P45983 whole entry): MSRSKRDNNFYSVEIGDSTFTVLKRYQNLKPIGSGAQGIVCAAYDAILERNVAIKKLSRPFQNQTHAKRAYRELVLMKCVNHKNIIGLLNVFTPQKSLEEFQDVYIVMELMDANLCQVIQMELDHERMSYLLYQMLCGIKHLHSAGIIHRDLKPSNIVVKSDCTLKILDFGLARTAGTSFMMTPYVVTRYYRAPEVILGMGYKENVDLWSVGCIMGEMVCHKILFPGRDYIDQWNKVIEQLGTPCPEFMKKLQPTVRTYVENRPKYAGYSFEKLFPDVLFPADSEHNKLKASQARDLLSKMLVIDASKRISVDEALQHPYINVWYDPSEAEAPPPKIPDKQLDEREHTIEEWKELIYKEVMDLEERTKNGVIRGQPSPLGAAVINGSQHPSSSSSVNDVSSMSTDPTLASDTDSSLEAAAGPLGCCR
- test.summary: Inhibition of JNK1 (unknown origin) expressed in HEK293 cells assessed as anisomycin-induced IRS-1(Ser307) phosphorylation at 10 uM incubated for 30 mins by Western blot analysis relative to anisomycin
- Assay type: cell-based
- Set-up: scale not given: the % may be the effect or the level left
Each entry below carries its reported Activity.
Unit % implied. Number only.

Record excerpt, results attached:
CN(C)CCNc1ncc2cc(Oc3ccc(F)cc3F)c(=O)n(C)c2n1 ... 104
Cn1c(=O)c(Oc2ccc(F)cc2F)cc2cnc(NC3CCN(S(C)(=O)=O)CC3)nc21 ... 2.72
Cn1c(=O)c(Oc2ccc(F)cc2F)cc2cnc(N3CCC(CO)CC3)nc21 ... 102

Now look at this entry.
Data request: Look up Activity: Cn1c(=O)c(Oc2c(Cl)cccc2Cl)cc2cnc(NC3CCOCC3)nc21
Data returned: 8.05

###

Each entry below carries its reported inhibition.
- study.target: Epithelial discoidin domain-containing receptor 1 (Homo sapiens) (UniProt Q08345)
- Sequence (Q08345 whole entry, the tested form may be a part): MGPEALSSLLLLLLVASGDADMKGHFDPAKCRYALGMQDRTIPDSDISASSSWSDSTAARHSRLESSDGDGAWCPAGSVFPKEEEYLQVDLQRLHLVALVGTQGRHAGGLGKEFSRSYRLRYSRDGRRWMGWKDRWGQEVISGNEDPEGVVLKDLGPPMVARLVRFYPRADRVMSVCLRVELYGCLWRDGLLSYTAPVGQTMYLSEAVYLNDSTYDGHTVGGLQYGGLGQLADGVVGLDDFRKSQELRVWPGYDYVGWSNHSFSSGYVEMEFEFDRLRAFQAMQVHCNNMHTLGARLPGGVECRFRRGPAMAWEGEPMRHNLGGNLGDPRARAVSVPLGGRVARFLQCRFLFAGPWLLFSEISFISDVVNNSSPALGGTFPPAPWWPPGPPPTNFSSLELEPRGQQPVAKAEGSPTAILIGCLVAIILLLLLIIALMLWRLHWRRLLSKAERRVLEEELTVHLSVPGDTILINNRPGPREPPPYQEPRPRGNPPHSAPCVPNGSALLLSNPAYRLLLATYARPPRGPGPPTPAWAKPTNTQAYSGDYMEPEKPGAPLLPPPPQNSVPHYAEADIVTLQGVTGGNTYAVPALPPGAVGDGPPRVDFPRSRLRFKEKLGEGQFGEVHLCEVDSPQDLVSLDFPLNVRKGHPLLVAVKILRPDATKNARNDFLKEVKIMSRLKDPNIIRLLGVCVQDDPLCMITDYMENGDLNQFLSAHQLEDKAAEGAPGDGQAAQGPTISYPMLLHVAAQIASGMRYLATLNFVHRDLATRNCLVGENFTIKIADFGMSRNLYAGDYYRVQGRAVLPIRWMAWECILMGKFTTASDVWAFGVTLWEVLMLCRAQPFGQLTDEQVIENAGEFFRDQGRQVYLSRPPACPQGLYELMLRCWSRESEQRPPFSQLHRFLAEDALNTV
- test.summary: Inhibition of DDR1 (unknown origin) at 10 uM
Unit % implied. Number only.

Cn1c(=O)c(Oc2ccc(F)cc2F)cc2cnc(NC3CCN(S(C)(=O)=O)CC3)nc21 ... 84
Cn1c(=O)c(Oc2ccc(F)cc2F)cc2cnc(NCCc3ccccn3)nc21 ... 95
CN1CCN(c2ccc(Nc3ncc4cc(Oc5c(Cl)cccc5Cl)c(=O)n(C)c4n3)cc2)CC1 ... 89
CN1CCN(CCCNc2ncc3cc(Oc4ccc(F)cc4F)c(=O)n(C)c3n2)CC1 ... 91

Data request: Look up inhibition: CN1CCN(c2ccc(Nc3ncc4cc(Oc5ccc(F)cc5F)c(=O)n(C)c4n3)cc2)CC1
Data returned: 100

Data request: Look up inhibition: Cn1c(=O)c(Oc2ccc(F)cc2F)cc2cnc(Nc3ccc(N4CCC(O)CC4)cc3)nc21
Data returned: 100

Data request: Look up inhibition: CN(C)CCNc1ncc2cc(Oc3ccc(F)cc3F)c(=O)n(C)c2n1
Data returned: 51

Data request: Look up inhibition: Cn1c(=O)c(Oc2c(Cl)cccc2Cl)cc2cnc(NC3CCOCC3)nc21
Data returned: 33

Data request: Look up inhibition: Cn1c(=O)c(Oc2ccc(F)cc2F)cc2cnc(Nc3ccc(N4CCCCC4)cc3)nc21
Data returned: 99

###

- study.target: Mitogen-activated protein kinase 8 (Homo sapiens, UniProt P45983)
- test.summary: Inhibition of JNK1 (unknown origin) expressed in HEK293 cells assessed as anisomycin-induced c-Jun phosphorylation at 10 uM incubated for 30 mins by Western blot analysis relative to anisomycin
- Type: cell-based
- Parameters: scale not given: the % may be the effect or the level left
Each entry below carries its reported Activity.

Cn1c(=O)c(Oc2c(Cl)cccc2Cl)cc2cnc(N3CCCCC3CO)nc21 (stereo not given) ... 118%

Data request: Look up Activity: NC(=O)c1ccccc1Nc1ccnc(Nc2cccc(O)c2)n1
Data returned: 104%

Data request: Look up Activity: Cn1c(=O)c(Oc2ccc(F)cc2F)cc2cnc(NCCN3CCOCC3)nc21
Data returned: 102%

Data request: Look up Activity: Cn1c(=O)c(Oc2ccc(F)cc2F)cc2cnc(NCCCNS(C)(=O)=O)nc21
Data returned: 73.5%

Data request: Look up Activity: Cn1c(=O)c(Oc2c(Cl)cccc2Cl)cc2cnc(Nc3ccc(N4CCCC4)cc3)nc21
Data returned: 104%

###

- study.target: Mitogen-activated protein kinase 8 (Homo sapiens)
- test.summary: Inhibition of JNK1 (unknown origin) expressed in HEK293 cells assessed as anisomycin-induced JNK phosphorylation at 10 uM incubated for 30 mins by Western blot analysis relative to anisomycin
- Format: cell-based
- Design: scale not given: the % may be the effect or the level left
measure.name: Activity (%)
Unit % implied. Number only.

Record excerpt, results attached:
Cn1c(=O)c(Oc2c(Cl)cccc2Cl)cc2cnc(NC3CCCC3)nc21 ... 108
Cn1c(=O)c(Oc2c(Cl)cccc2Cl)cc2cnc(N3CCCC(CO)C3)nc21 (stereo unspecified) ... 99.3
CN(C)CCNc1ncc2cc(Oc3ccc(F)cc3F)c(=O)n(C)c2n1 ... 104
Cn1c(=O)c(Oc2ccc(F)cc2F)cc2cnc(Nc3ccc(N4CCCC4)cc3)nc21 ... 98.9
Cn1c(=O)c(Oc2ccc(F)cc2F)cc2cnc(NC3CCN(S(N)(=O)=O)CC3)nc21 ... 30.5

Data request: Look up Activity: Cn1c(=O)c(Oc2c(Cl)cccc2Cl)cc2cnc(N3CCC(O)C3)nc21 (stereo unspecified)
Data returned: 74.5

Data request: Look up Activity: Cn1c(=O)c(Oc2ccc(F)cc2F)cc2cnc(NCCc3ccccn3)nc21
Data returned: 82

Data request: Look up Activity: Cn1c(=O)c(Oc2c(Cl)cccc2Cl)cc2cnc(N3CCCC(O)C3)nc21 (stereo unspecified)
Data returned: 36.2

###

- study.target: Mitogen-activated protein kinase 8 (Homo sapiens, UniProt P45983)
- test.summary: Inhibition of JNK1 (unknown origin) expressed in HEK293 cells assessed as anisomycin-induced IRS-1(Ser307) phosphorylation at 10 uM incubated for 30 mins by Western blot analysis relative to anisomycin
- Type: cell-based
- Set-up: scale not given: the % may be the effect or the level left
Each entry below carries its reported Activity.
Unit % implied. Number only.

Record excerpt, results attached:
Cn1c(=O)c(Oc2ccc(F)cc2F)cc2cnc(NC3CC3)nc21 ... 2.61
Cn1c(=O)c(Oc2c(Cl)cccc2Cl)cc2cnc(N3CCC(O)C3)nc21 (stereo unspecified) ... 74.5
CC(C)Nc1ncc2cc(Oc3ccc(F)cc3F)c(=O)n(C)c2n1 ... 15
Cn1c(=O)c(Oc2c(Cl)cccc2Cl)cc2cnc(N3CCCCC3CO)nc21 (stereo unspecified) ... 110
CCOC(=O)N1CCC(Nc2ncc3cc(Oc4ccc(F)cc4F)c(=O)n(C)c3n2)CC1 ... 0

Data request: Look up Activity: Cn1c(=O)c(Oc2c(Cl)cccc2Cl)cc2cnc(N3CCC(CO)CC3)nc21
Data returned: 127

Data request: Look up Activity: Cn1c(=O)c(Oc2ccc(F)cc2F)cc2cnc(NC3CCCC3)nc21
Data returned: 0

Data request: Look up Activity: Cn1c(=O)c(Oc2ccc(F)cc2F)cc2cnc(NCCNS(C)(=O)=O)nc21
Data returned: 12.2

Data request: Look up Activity: Cn1c(=O)c(Oc2ccc(F)cc2F)cc2cnc(NC3CCNCC3)nc21
Data returned: 0

Data request: Look up Activity: Cn1c(=O)c(Oc2ccc(F)cc2F)cc2cnc(NC3CCCCCC3)nc21
Data returned: 0

Data request: Look up Activity: Cn1c(=O)c(Oc2c(Cl)cccc2Cl)cc2cnc(NCCN3CCOCC3)nc21
Data returned: 71.3

###

Each entry below carries its reported inhibition.
- study.target: Mitogen-activated protein kinase 8 (Homo sapiens, UniProt P45983)
- test.summary: Inhibition of JNK1 (unknown origin) at 10 uM
Unit % implied. Number only.

CN1CCN(CCCNc2ncc3cc(Oc4ccc(F)cc4F)c(=O)n(C)c3n2)CC1 ... 20
CN1CCN(c2ccc(Nc3ncc4cc(Oc5ccc(F)cc5F)c(=O)n(C)c4n3)cc2)CC1 ... 64
CN(C)CCNc1ncc2cc(Oc3ccc(F)cc3F)c(=O)n(C)c2n1 ... 3
Cn1c(=O)c(Oc2ccc(F)cc2F)cc2cnc(NCCc3ccccn3)nc21 ... 55
Cn1c(=O)c(Oc2c(Cl)cccc2Cl)cc2cnc(NC3CCOCC3)nc21 ... 67

Data request: Look up inhibition: Cn1c(=O)c(Oc2ccc(F)cc2F)cc2cnc(NC3CCN(S(C)(=O)=O)CC3)nc21
Data returned: 93

Data request: Look up inhibition: Cn1c(=O)c(Oc2ccc(F)cc2F)cc2cnc(Nc3ccc(N4CCC(O)CC4)cc3)nc21
Data returned: 94

Data request: Look up inhibition: Cn1c(=O)c(Oc2ccc(F)cc2F)cc2cnc(Nc3ccc(N4CCCCC4)cc3)nc21
Data returned: 13

Data request: Look up inhibition: CN1CCN(c2ccc(Nc3ncc4cc(Oc5c(Cl)cccc5Cl)c(=O)n(C)c4n3)cc2)CC1
Data returned: 34
